system: Mus musculus; experiment: Antidepressant activity in po dosed mouse assessed as antagonism of reserpine-induced ptosis; format: functional
Each record here notes measured ED50.
Express the result in mg/kg but write the number alone.

>>> print(df.to_string())
                                   compound  recorded_endpoint  units_symbol  assay_value
0  Br.O=C(O)CC1SC2=NCCN2C1(O)c1ccc(Cl)cc1 (stereo unspecified)               ED50         mg/kg         0.22

Check the records and state ED50 for Br.O=C(O)CC1SC2=NCCCN2C1(O)c1ccc(Cl)cc1 (stereo unspecified)
0.25

Check the records and state ED50 for Br.COC(=O)CC1SC2=NCCN2C1(O)c1ccc(Cl)cc1 (stereo unspecified)
0.5

Check the records and state ED50 for Br.CCOC(=O)CC1SC2=NCCCN2C1(O)c1ccc(Cl)cc1 (stereo unspecified)
0.118

Check the records and state ED50 for Br.CCOC(=O)CC1SC2=NCCN2C1(O)c1ccccc1 (stereo unspecified)
0.27

Check the records and state ED50 for Br.COC(=O)CC1SC2=NCCN2C1(O)c1ccccc1 (stereo unspecified)
0.5

====

system: Lewis lung carcinoma cell line; assay: Antimetastatic activity against mouse LLC cells allografted in BDF1 mouse assessed as increase in host survival; type: functional
Active and inactive are the calls of the source. The rule behind the calls is not given here.
Hello, when you answer, please use one of the following outcomes: active, inactive

>>> print(df.to_string())
                                   compound  category_label
0  CCOC(=O)CC1Sc2nc3ccccc3n2C1(O)c1ccc(Cl)cc1 (centres undefined)          active

# lookup: test call for COC(=O)CC1Sc2nc3ccccc3n2C1(O)c1ccc(Cl)cc1 (centres undefined)
active

# lookup: test call for Br.O=C(O)CC1SC2=NCCCN2C1(O)c1ccc(Cl)cc1 (centres undefined)
inactive

# lookup: test call for `O=C(O)Cc1sc2nc3ccccc3n2c1-c1ccc(Cl)cc1`
active
